protocol summary: In vivo plasma levels in mice after oral gavage
Design: species or system C57BL/6J mice
experimental context: male, C57BL/6J, plasma, 30 mg/kg; mouse, 30 mpk oral gavage, 7 h post-dose; read-out: Exposure Total (plasma)
observed property: concentration at 7 h (nM)

O=C(CC1CN(C(=O)Cc2ccc(OCCCC3CCN(c4ncc(Cl)cn4)CC3)cc2F)C1)NC[C@H](O)[C@@H](O)[C@H](O)[C@H](O)CO (racemic)
76
O=C(NC[C@H](O)[C@@H](O)[C@H](O)[C@H](O)CO)C1CN(C(=O)Cc2ccc(OCCCC3CCN(c4ncc(Cl)cn4)CC3)cc2F)C1 (racemic)
551

P. O=C(Cc1ccc(OCC[C@@H]2C[C@@H]2C2CCN(c3ncc(Cl)cn3)CC2)cc1F)N1CC(CNC[C@H](O)[C@@H](O)[C@H](O)[C@H](O)CO)C1
Q. O=C(Cc1ccc(OCCCC2CCN(c3ncc(Cl)cn3)CC2)cc1F)N1CC(CNC(CO)(CO)CO)C1
R. O=C(NC(CO)(CO)CO)C1CN(C(=O)Cc2ccc(OCCCC3CCN(c4ncc(Cl)cn4)CC3)cc2F)C1
[in] Arrange the 3 compounds from largest to smallest concentration at 7 h. As an answer, provide the labels arranged in the order called for.
[out] Q, R, P
